Target Desc: TNF-α converting enzyme (TACE) (Homo sapiens, UniProt P78536)
Sequence (P78536 215-824): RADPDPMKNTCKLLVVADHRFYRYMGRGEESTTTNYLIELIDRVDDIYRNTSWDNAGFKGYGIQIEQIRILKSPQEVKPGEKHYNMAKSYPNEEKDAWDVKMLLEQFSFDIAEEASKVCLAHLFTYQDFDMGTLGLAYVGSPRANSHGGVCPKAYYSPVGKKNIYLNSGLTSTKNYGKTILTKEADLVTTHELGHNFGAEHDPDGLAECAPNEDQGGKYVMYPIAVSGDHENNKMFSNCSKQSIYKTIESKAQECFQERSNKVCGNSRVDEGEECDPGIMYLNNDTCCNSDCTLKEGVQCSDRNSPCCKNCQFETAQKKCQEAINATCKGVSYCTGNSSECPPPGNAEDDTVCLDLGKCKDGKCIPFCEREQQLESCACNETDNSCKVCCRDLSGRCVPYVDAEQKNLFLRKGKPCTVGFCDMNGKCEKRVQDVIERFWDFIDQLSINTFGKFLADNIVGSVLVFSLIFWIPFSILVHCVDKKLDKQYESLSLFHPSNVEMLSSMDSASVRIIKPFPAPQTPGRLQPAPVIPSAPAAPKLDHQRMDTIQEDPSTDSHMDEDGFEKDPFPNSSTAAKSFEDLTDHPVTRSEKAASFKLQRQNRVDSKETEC
Protocol Details: TACE inhibition, fluorescent peptidyl substrate
Type: biochemical
Condition Context: Table 1, first part; read-out: TACE IC50
# note: boundary value 40 nM maps to criterion not met; IC50 below it maps to criterion met

[[record]]
compound = "CC#CCOc1ccc([S+]([O-])C(CCCCNC(=O)c2nccc3ccccc23)C(=O)NO)cc1 (centres unmarked)"
label_value = "criterion met"

[[record]]
compound = "CC#CCOc1ccc(S(=O)(=O)C(CCCCCC)C(=O)NO)cc1 (centres unmarked)"
label_value = "criterion not met"

[[record]]
compound = "CC#CCOc1ccc(S(=O)(=O)C(CCCCNC(=O)Cc2ccc(Cl)c(Cl)c2)C(=O)NO)cc1 (centres unmarked)"
label_value = "criterion not met"

[[record]]
compound = "CC#CCOc1ccc(SC(CCCCNC(=O)CNC(=O)Cc2ccc(Cl)c(Cl)c2)C(=O)NO)cc1 (centres unmarked)"
label_value = "criterion met"


# input for lookup
Query: Find out if reported IC50 for CC#CCOc1ccc(S(=O)(=O)C(CCCCNC(=O)CNC(=O)Cc2ccc(Cl)c(Cl)c2)C(=O)NO)cc1 (centres unmarked) is less than 40 nM
Reply: criterion not met

---

Tested on: THP-1 cells (soluble TNF-α)
Protocol Details: Human monocytic THP-1 cell differentiation assay for soluble proteins (THP soluble protein assay)
Format: cell-based
Condition Context: Homo sapiens, THP-1, percent change from vehicle positive control, negative = less TNF-α, read-out: TNFalpha at 3 uM, THP (percent change)
Text: Mitogenic stimulation of THP-1 cells cause differentiation into macrophage like cells with concomitant secretion of tumor necrosis factor (TNF-a) and TNF receptor (TNF-R p75/80 and TNF-R p55/60) and Interleukin-8 (IL-8), among other proteins. […] The quantity of soluble TNF-α, TNF-R p75/80 and TNF-R p55/60 and IL-8 in the TCS of the ThP-1 cell cultures are obtained with commercially available ELISAs from R&D Systems, by extrapolation from a standard curve generated with kit standards. […]
Measured Parameter: inhibition at 3 µM (%)
Express your answer in %, writing the number without its unit.

[[record]]
molecule = "CC#CCOc1ccc(SC(C(=O)NO)c2cccc(Br)c2)cc1 (stereo not shown)"
unit_abbreviation = "%"
quantitative_readout = -15


Query: Would you kindly share the measured inhibition at 3 µM for CC#CCOc1ccc(SC(C(=O)NO)c2ccc(OCC)cc2)cc1 (stereo not shown) ?
Reply: 0

Query: # get_value(readout='inhibition at 3 µM', item= CC#CCOc1ccc([S+]([O-])C(C(=O)NO)c2ccc(OCC)cc2)cc1 (stereo not shown) )
Reply: -1

Query: Please look up its inhibition at 3 µM: CC#CCOc1ccc([S+]([O-])[C@@H](C(=O)NO)c2ccc(OC)cc2)cc1 (single isomer, unassigned)
Reply: 12

Query: Given the entry CC#CCOc1ccc([S+]([O-])C(C(=O)NO)c2ccccc2)cc1 (single isomer, unassigned) , report its measured inhibition at 3 µM.
Reply: 4

Query: Value lookup for inhibition at 3 µM; key = CC#CCOc1ccc([S+]([O-])C(C(=O)NO)c2ccc(F)cc2)cc1 (stereo not shown)
Reply: 12

Query: Can you share its inhibition at 3 µM? I mean this molecule: CC#CCOc1ccc([S+]([O-])[C@@H](C(=O)NO)c2ccc(Br)cc2)cc1 (single isomer, unassigned)
Reply: -5

meta.source: patent US6825354B2
